# TESTED ON: human TAS1R2-WT/TAS1R3-S446N (Homo sapiens, UniProt Q7RTX0+Q8TE23, S446N)
# Construct: expressed in transfected cells; host or cells: HEK293T stably expressing Gα16gust44
# Sequence (Q8TE23 20-839): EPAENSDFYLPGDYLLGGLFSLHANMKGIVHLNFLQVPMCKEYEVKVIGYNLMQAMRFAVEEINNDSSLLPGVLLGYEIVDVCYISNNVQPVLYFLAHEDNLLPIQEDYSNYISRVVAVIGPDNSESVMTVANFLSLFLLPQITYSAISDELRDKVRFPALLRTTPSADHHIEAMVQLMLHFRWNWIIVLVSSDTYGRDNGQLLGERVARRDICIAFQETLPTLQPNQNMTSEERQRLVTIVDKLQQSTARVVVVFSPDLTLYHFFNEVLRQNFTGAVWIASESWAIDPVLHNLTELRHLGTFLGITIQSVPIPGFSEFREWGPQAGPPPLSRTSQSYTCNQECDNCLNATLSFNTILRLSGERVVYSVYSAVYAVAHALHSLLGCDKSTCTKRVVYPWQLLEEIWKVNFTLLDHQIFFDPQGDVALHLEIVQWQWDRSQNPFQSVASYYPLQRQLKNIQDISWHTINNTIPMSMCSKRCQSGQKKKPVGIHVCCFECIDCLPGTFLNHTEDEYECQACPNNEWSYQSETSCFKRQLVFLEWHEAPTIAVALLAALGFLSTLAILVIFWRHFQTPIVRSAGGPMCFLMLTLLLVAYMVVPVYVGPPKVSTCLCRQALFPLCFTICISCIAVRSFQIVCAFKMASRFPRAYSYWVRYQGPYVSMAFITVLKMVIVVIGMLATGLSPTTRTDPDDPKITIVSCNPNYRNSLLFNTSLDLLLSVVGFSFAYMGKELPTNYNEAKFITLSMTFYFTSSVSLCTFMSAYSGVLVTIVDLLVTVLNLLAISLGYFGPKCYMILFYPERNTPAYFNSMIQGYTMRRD
# Sequence (Q7RTX0 21-852 S446N): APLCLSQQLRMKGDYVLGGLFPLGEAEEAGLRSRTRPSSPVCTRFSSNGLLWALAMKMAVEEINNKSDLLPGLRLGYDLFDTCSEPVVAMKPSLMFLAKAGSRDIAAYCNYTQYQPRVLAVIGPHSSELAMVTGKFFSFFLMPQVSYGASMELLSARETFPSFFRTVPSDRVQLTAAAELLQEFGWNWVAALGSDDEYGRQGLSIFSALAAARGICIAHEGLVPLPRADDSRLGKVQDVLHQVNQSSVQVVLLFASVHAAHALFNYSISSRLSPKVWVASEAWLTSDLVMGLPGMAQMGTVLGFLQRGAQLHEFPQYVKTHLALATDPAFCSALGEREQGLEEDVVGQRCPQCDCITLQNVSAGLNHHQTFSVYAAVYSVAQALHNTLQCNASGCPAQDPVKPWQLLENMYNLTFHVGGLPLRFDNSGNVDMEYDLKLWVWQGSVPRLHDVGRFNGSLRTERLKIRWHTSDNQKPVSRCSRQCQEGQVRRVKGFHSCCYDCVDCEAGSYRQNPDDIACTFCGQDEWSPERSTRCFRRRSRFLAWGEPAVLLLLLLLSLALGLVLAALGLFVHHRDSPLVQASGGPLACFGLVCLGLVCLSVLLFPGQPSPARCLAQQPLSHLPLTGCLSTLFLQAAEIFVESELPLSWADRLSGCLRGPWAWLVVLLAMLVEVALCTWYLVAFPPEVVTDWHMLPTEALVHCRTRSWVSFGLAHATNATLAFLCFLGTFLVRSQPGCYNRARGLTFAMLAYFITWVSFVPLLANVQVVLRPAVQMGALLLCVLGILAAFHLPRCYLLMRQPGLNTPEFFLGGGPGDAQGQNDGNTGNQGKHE
# TEST METHOD NOTES: Calcium mobilisation assay, TAS1R2-WT with TAS1R3 variant S446N
# Type: cell-based
# ASSAY CONDITIONS: read-out: EC50
ENDPOINT NAME: EC50 (µM)
Supply the numeric figure in µM, leaving out any unit text.

MOLECULE	MEASURED
C=C1C[C@@]23CC[C@H]4[C@@](C)(CCC[C@@]4(C)C(=O)O[C@@H]4O[C@H](CO)[C@@H](O)[C@H](O[C@@H]5O[C@H](CO)[C@@H](O)[C@H](O)[C@H]5O)[C@H]4O[C@@H]4O[C@H](CO)[C@@H](O)[C@H](O)[C@H]4O)[C@@H]2CC[C@]1(O[C@@H]1O[C@H](CO)[C@@H](O)[C@H](O[C@@H]2O[C@H](CO)[C@@H](O)[C@H](O)[C@H]2O)[C@H]1O[C@@H]1O[C@H](CO)[C@@H](O)[C@H](O)[C@H]1O)C3 [Rebaudioside M, rebaudioside M]	36.9
C=C(C)[C@@H]1CC=C(/C=N/O)CC1	15.3
O=S(=O)(O)NC1CCCCC1 [Cyclamate, cyclamate]	1480
OC[C@H]1O[C@H](O[C@]2(CCl)O[C@H](CCl)[C@@H](O)[C@@H]2O)[C@H](O)[C@@H](O)[C@H]1Cl	155

Continue with the next molecule.
Prompt line: Entry `COC(=O)[C@H](Cc1ccccc1)NC(=O)[C@H](CC(=O)O)NCCC(C)(C)C` has what EC50?
Response line: 1.22

Origin of the recorded values: paper PMC11945486
